Ref: patent US10508107B2

target: human DAT (Homo sapiens (Human)); experiment: Binding to dopamine transporter (DAT) in vitro, [3H]-WIN35,428 SPA; conditions: [3H]-WIN35,428 radioligand
Sequence (Q01959 whole entry): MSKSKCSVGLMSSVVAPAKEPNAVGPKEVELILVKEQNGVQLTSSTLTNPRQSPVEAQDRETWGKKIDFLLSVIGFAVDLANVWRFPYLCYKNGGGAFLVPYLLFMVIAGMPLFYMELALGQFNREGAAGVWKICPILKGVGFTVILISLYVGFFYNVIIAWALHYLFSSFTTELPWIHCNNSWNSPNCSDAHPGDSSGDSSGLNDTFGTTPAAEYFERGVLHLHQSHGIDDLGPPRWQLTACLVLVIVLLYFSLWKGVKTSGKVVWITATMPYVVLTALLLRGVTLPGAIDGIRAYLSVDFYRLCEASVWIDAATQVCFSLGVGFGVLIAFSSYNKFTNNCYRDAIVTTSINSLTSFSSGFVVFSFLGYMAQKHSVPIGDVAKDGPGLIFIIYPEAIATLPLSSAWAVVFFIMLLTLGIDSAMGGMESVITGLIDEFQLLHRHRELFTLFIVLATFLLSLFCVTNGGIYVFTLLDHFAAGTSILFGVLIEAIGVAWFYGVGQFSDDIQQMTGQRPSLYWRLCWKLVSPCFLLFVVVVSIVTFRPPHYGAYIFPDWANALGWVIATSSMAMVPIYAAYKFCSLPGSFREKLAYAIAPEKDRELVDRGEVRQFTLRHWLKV
Field: log10 of Ki. Provide a value for each of the compounds that follow.
Annotation: log10 of Ki, µM basis.

# smiles-code, recorded-metric, value
rows = [
    ("O=C(Nc1ccc([C@H]2CNCCO2)cc1)c1ccnc(Cl)c1", "log10 of Ki", 0.18),
    ("O=C(Nc1ccc([C@H]2CNCCO2)cc1)c1ccc(OCC(F)(F)F)nc1", "log10 of Ki", 1.24),
    ("O=C(Nc1ccc([C@H]2CNCCO2)cc1)c1csc(-c2ccccc2)n1", "log10 of Ki", 1.21),
    ("O=C(Nc1ccc([C@H]2CNCCO2)cc1)c1cc(Cl)nc(Cl)c1", "log10 of Ki", -0.10),
]

Consider the following items and state reported log10 of Ki for each.
1. O=C(Nc1ccc([C@H]2CNCCO2)cc1)c1cncc(Cl)c1
2. O=C(Nc1ccc([C@H]2CNCCO2)cc1)c1cnc(Cl)c(Cl)c1
3. Cc1c(C(=O)Nc2ccc([C@H]3CNCCO3)cc2)n[nH]c1-c1ccccc1

Data returned:
1. 0.12
2. -0.32
3. 0.99
